# System: Mewo (Melanoma)
# Procedure Details: combination Emax (second highest fraction inhibited in the dose matrix, 72 h); higher = more inhibition; extreme values may be limits of the assay
Collected combination Emax values appear next to each entry.
Measurement Name: combination Emax

>>> endpoint_value("CC(=O)Nc1cccc(-n2c(=O)n(C3CC3)c(=O)c3c(Nc4ccc(I)cc4F)n(C)c(=O)c(C)c32)c1 [Trametinib] + Cc1nc(-c2cn3c(n2)-c2ccc(-c4cnn(C(C)(C)C(N)=O)c4)cc2OCC3)n(C(C)C)n1 [Taselisib] (first compound max 1 µM, 7x7, partner max 10 µM)")
0.692
>>> endpoint_value("Cc1c2c(nn1C)CSCc1cc(n(C)n1)CSc1cc(c3ccccc3c1)OCCCc1c(C(=O)O)n(C)c3c-2c(Cl)ccc13 [AZD5991] + C[C@@H]1COCCN1C2=NC(=NC(=C2)C3(CC3)[S@](=N)(=O)C)C4=C5C=CNC5=NC=C4 [AZD6738] (first compound max 1 µM, 7x7, partner max 10 µM)")
0.59
>>> endpoint_value("CCc1c2c(nc3ccc(O)cc13)-c1cc3c(c(=O)n1C2)COC(=O)[C@]3(O)CC [SN-38] + CN(C)CCCOc1ccc(-c2ccc3ncc4c(c3c2)n(C2CCOCC2)c(=O)n4C)cn1 [AZD0156] (first compound max 0.3 µM, 7x7, partner max 1 µM)")
0.248
>>> endpoint_value("CC1(C)CCC(CN2CCN(c3ccc(C(=O)NS(=O)(=O)c4ccc(NCC5CCOCC5)c([N+](=O)[O-])c4)c(Oc4cnc5[nH]ccc5c4)c3)CC2)=C(c2ccc(Cl)cc2)C1 [Venetoclax] + C[C@@H]1COCCN1C2=NC(=NC(=C2)C3(CC3)[S@](=N)(=O)C)C4=C5C=CNC5=NC=C4 [AZD6738] (first compound max 1 µM, 7x7, partner max 10 µM)")
0.556
>>> endpoint_value("CCN(CCO)CCCOc1ccc2c(Nc3cc(CC(=O)Nc4cccc(F)c4)[nH]n3)ncnc2c1 [AZD2811] + O=C(c1cc(Cc2n[nH]c(=O)c3ccccc23)ccc1F)N1CCN(C(=O)C2CC2)CC1 [Olaparib] (first compound max 1 µM, 7x7, partner max 10 µM)")
0.226
>>> endpoint_value("O=C(c1cc(Cc2n[nH]c(=O)c3ccccc23)ccc1F)N1CCN(C(=O)C2CC2)CC1 [Olaparib] + Cc1c2c(nn1C)CSCc1cc(n(C)n1)CSc1cc(c3ccccc3c1)OCCCc1c(C(=O)O)n(C)c3c-2c(Cl)ccc13 [AZD5991] (first compound max 10 µM, 7x7, partner max 1 µM)")
0.161
>>> endpoint_value("Cc1c2c(nn1C)CSCc1cc(n(C)n1)CSc1cc(c3ccccc3c1)OCCCc1c(C(=O)O)n(C)c3c-2c(Cl)ccc13 [AZD5991] + C1CN(CCC1(C(=O)N[C@@H](CCO)C2=CC=C(C=C2)Cl)N)C3=NC=NC4=C3C=CN4 [Capivasertib] (first compound max 1 µM, 7x7, partner max 3 µM)")
0.199

###

Collected combination Emax values appear next to each entry.
# Test system: CTB-1 (B-Cell Non-Hodgkin's Lymphoma)
# Procedure Details: combination Emax (second highest fraction inhibited in the dose matrix, 72 h); higher = more inhibition; extreme values may be limits of the assay
Measurement Name: combination Emax

>>> endpoint_value("CN(C)CCCOc1ccc(-c2ccc3ncc4c(c3c2)n(C2CCOCC2)c(=O)n4C)cn1 [AZD0156] + CCN(CCO)CCCOc1ccc2c(Nc3cc(CC(=O)Nc4cccc(F)c4)[nH]n3)ncnc2c1 [AZD2811] (first compound max 1 µM, 7x7, partner max 1 µM)")
0.501
>>> endpoint_value("Cc1c2c(nn1C)CSCc1cc(n(C)n1)CSc1cc(c3ccccc3c1)OCCCc1c(C(=O)O)n(C)c3c-2c(Cl)ccc13 [AZD5991] + Cn1cnc2c(F)c(Nc3ccc(Br)cc3Cl)c(C(=O)NOCCO)cc21 [Selumetinib] (first compound max 1 µM, 7x7, partner max 3 µM)")
0.203
>>> endpoint_value("CN(CCO)CC[C@H](CSc1ccccc1)Nc1ccc(S(=O)(=O)NC(=O)c2ccc(N3CCC([C@@H](O)c4ccccc4-c4ccc(Cl)cc4)CC3)cc2)cc1S(=O)(=O)C(F)(F)F [AZD4320] + C[C@@H](Nc1cc(F)cc(F)c1)c1cc(C(=O)N(C)C)cc2c(=O)cc(N3CCOCC3)oc12 [AZD8186] (first compound max 1 µM, 7x7, partner max 3 µM)")
0.669
>>> endpoint_value("CC1(C)CCC(CN2CCN(c3ccc(C(=O)NS(=O)(=O)c4ccc(NCC5CCOCC5)c([N+](=O)[O-])c4)c(Oc4cnc5[nH]ccc5c4)c3)CC2)=C(c2ccc(Cl)cc2)C1 [Venetoclax] + CN(C)CCCOc1ccc(-c2ccc3ncc4c(c3c2)n(C2CCOCC2)c(=O)n4C)cn1 [AZD0156] (first compound max 1 µM, 7x7, partner max 1 µM)")
0.242
>>> endpoint_value("Cc1cc2ncnn2cc1Nc1ncc2c(n1)n(C1CCOCC1)c(=O)n2C [AZD7648] + CN(C)CCCOc1ccc(-c2ccc3ncc4c(c3c2)n(C2CCOCC2)c(=O)n4C)cn1 [AZD0156] (first compound max 10 µM, 7x7, partner max 1 µM)")
0.404
>>> endpoint_value("CN(C)CCCOc1ccc(-c2ccc3ncc4c(c3c2)n(C2CCOCC2)c(=O)n4C)cn1 [AZD0156] + C[C@@H]1COCCN1C2=NC(=NC(=C2)C3(CC3)[S@](=N)(=O)C)C4=C5C=CNC5=NC=C4 [AZD6738] (first compound max 1 µM, 7x7, partner max 10 µM)")
0.829
>>> endpoint_value("COc1cc2c(cc1OCCCCCOc1cc3c(cc1OC)C(=O)N1C=C(C)C[C@H]1C=N3)N=C[C@@H]1CC(C)=CN1C2=O [SG3199] + O=C(c1cc(Cc2n[nH]c(=O)c3ccccc23)ccc1F)N1CCN(C(=O)C2CC2)CC1 [Olaparib] (first compound max 0.001 µM, 7x7, partner max 10 µM)")
0.28
